The measurements presented in this section are drawn from ChEMBL document CHEMBL1201862.

tested on: NCI-H23; assay: NCI tumour cell line growth inhibition, 48 h
Active and inactive are the calls of the source. Rule as the data show it: active = GI50 up to about 1.1 µM and inactive = higher.
Please state which outcome applies, choosing from t for active, f for inactive

Observe how each entry below is paired with its result.
- COMPOUND: "COc1ccc(CNC2=C(NC(C)=O)C(=O)c3ccccc3C2=O)cc1"
  CLASS ASSIGNMENT: "f"
- COMPOUND: "CN(C)Cc1cc(/N=N/c2ccccc2Cl)cc(CN(C)C)c1O"
  CLASS ASSIGNMENT: "f"
- COMPOUND: "Cn1c2ccccc2c2c3c(c4c5ccccc5n(C)c4c21)C(=O)c1ccccc1C3=O"
  CLASS ASSIGNMENT: "f"

Field: outcome | Entry: [C-]#[N+]C(C)(C)C[C@H]1CC(C)C2CCC(C)C3([N+]#[C-])CCC(=C)C1[C@H]23 (some centres not stated)
t

Field: outcome | Entry: CCC(=O)C12OC3OC(C)(C)OC3C1OC(C)(C)O2 (configuration not stated)
f

Field: outcome | Entry: `Cc1ccc(S(=O)(=O)NN=C2C(C)(C)CC2(C)C)cc1`
f

Field: outcome | Entry: CC(=O)OCc1nnn2c1C(OC(C)=O)CC2 (configuration not stated)
f

Field: outcome | Entry: `CC(C)n1c(=O)n(-c2ccccc2)n(C(C)(C)C)c1=O`
f

Field: outcome | Entry: `CC(=O)Nc1ccc(C(=O)N2N=C(C)/C(=C/c3cccc(O)c3)C2=O)cc1`
f

Field: outcome | Entry: CN1C(=O)C2(C)SC1(c1ccccc1)C1C(=O)N(c3ccccc3)C(=O)C12 (configuration not stated)
f

Field: outcome | Entry: Cc1ccc(S(=O)OCc2c(C)c(C)c(COS(=O)c3ccc(C)cc3)c(C)c2C)cc1 (configuration not stated)
f

Field: outcome | Entry: `Nc1c(-c2ccccc2[N+](=O)[O-])nc2ccccn12`
f

Field: outcome | Entry: CC(=O)C1=C(C)N(c2ccc(C)cc2)C2(O)C3=C(C(=O)c4ccccc4C3=O)C(O)=CC12Cl (configuration not stated)
f

Field: outcome | Entry: C/C=C/[C@H]1O[C@@](OC)([C@@H](C)[C@H](O)[C@H](C)[C@H]2OC(=O)/C(OC)=C/C(C)=C/[C@@H](C)[C@@H](O)[C@@H](C)[C@@H](O)[C@H](C)C/C(C)=C/C=C/[C@@H]2OC)CC(OC2CC(O)C(OC(N)=O)C(C)O2)[C@@H]1C (some centres not stated)
f

Field: outcome | Entry: Cc1cn(C2CC(N(O)C(N)=O)C(CO)O2)c(=O)[nH]c1=O (configuration not stated)
f

---

system: Hs-578T; assay: NCI tumour cell line growth inhibition, 48 h
Calls of active or inactive are those of the source. Rule as the data show it: active = GI50 up to about 1.1 µM and inactive = higher.
Please state which outcome applies, choosing from yes for active, no for inactive

Observe how each entry below is paired with its result.
- COMPOUND: "CC(=O)CC12NC(=O)N(C)N=C1N(C)C(=O)N(C)C2=O (stereo unspecified)"
  CLASS ASSIGNMENT: "no"
- COMPOUND: "N#CCCN(CCC#N)c1ccc(C(=N/c2ccc(Cl)cc2)/N=N/c2ccccc2)cc1"
  CLASS ASSIGNMENT: "no"

Field: outcome | Entry: COc1cc(C2c3cc4c(cc3[C@@H](Nc3ccc(F)cc3)C3COC[C@H]23)OCO4)cc(OC)c1O (stereo partly specified)
yes

Field: outcome | Entry: `O=C(Nc1cccc(F)c1)c1cc2ccc(O)cc2o/c1=N\c1cccc(F)c1`
no

Field: outcome | Entry: `CC(=O)O[C@H]1C(=O)[C@@]2(C)[C@H]([C@H](OC(=O)c3ccccc3)[C@]3(O)C[C@H](OC(=O)[C@H](O)[C@@H](NC(=O)c4cccc(N=[N+]=[N-])c4)c4ccccc4)C(C)=C1C3(C)C)[C@]1(OC(C)=O)CO[C@@H]1C[C@@H]2O`
yes

Field: outcome | Entry: CN1C2CCC1CC(CCNC(c1ccccc1)c1ccccc1)C2 (stereo unspecified)
no

Field: outcome | Entry: `CCOC(=O)c1cc2cc(C)cc(C(=O)c3ccc([N+](=O)[O-])cc3)c2[nH]1`
no

---

tested on: SNB-78; test: NCI tumour cell line growth inhibition, 48 h
Active and inactive are the calls of the source. Cut-off read from the data, not from the text of the source: active = GI50 up to about 1.1 µM and inactive = higher.
Please state which outcome applies, choosing from label 1 (active), label 0 (inactive)

Field: outcome | Entry: COP(=O)(CC(=O)C1OC(C)(C)OC1C(O)COCc1ccccc1)OC (stereo not drawn)
label 0

Field: outcome | Entry: `Cc1ccc2c(c1-c1ccccc1)C(=O)OC2`
label 0

Field: outcome | Entry: `CCOC(=O)c1cc(Cl)ccc1OC(N)=O`
label 0

Field: outcome | Entry: `CC1=C(C(=O)NCc2ccccc2)C(c2ccccc2O)C(C(=O)NCc2ccccc2)=C(C)N1`
label 0

Field: outcome | Entry: `O=S(=O)(Cc1ccccc1)SCc1ccccc1`
label 0

Field: outcome | Entry: O=C(CC1(O)C(=O)Nc2c(Cl)cc(Cl)cc21)c1ccc(Br)cc1Br (stereo not drawn)
label 0

Field: outcome | Entry: `O=[N+]([O-])C(/C=N/Nc1ccccc1)/C=N/Nc1ccccc1`
label 0

---

The following molecules are listed with their measured GI50 values.
test system: OVCAR-5; experiment: NCI tumour cell line growth inhibition, 48 h
Activity calls are given as the source filed them. No stated cut-off is given here; in the data, active = GI50 up to about 1.1 µM and inactive = higher.

- MOLECULE: "Cc1ccc2c(CC(=O)O)cc(=O)oc2c1"
  GI50: "> 100 µM (inactive)"
- MOLECULE: "O=C1OCc2c1cc1cc3c(cc1c2-c1ccc2c(c1)OCO2)OCO3.O=C1OCc2cc3cc4c(cc3c(-c3ccc5c(c3)OCO5)c21)OCO4"
  GI50: "21 µM (inactive)"
- MOLECULE: "CC(C)(C1=NC(C(C)(C)C)CO1)C1=N[C@@H](C(C)(C)C)CO1 (some centres not stated)"
  GI50: "> 100 µM (inactive)"

Record `N/N=C1/CCCc2nonc21` ; system OVCAR-5; GI50 = > 100 µM (inactive)

Record CCC(=O)C12OC3OC(C)(C)OC3C1OC(C)(C)O2 (configuration not stated) ; system OVCAR-5; GI50 = > 100 µM (inactive)

Record O=C1CCCC1NC(=O)C(F)(F)F (configuration not stated) ; system OVCAR-5; GI50 = > 100 µM (inactive)

Record `O=[N+]([O-])c1ccc(/N=N/N2CCCC2)cc1` ; system OVCAR-5; GI50 = > 100 µM (inactive)

Record COc1cccc(/C=C2\CCC(CCN(C)C)(C3=CCCC3)C2=O)c1 (configuration not stated) ; system OVCAR-5; GI50 = 14.6 µM (inactive)

Record `Cc1cc(N(CCC#N)CCC#N)ccc1/C=C1N=C(/C=C\c2ccccc2)N(c2ccc(C(=O)O)cc2)C\1=O` ; system OVCAR-5; GI50 = > 100 µM (inactive)

Record Fc1ccccc1C1SCC2=Nc3ccccc3CN21 (configuration not stated) ; system OVCAR-5; GI50 = 92.9 µM (inactive)

Record `CCOC(=O)c1cc(Cl)ccc1OC(N)=O` ; system OVCAR-5; GI50 = > 100 µM (inactive)

Record `O=C(O/C(=C(/N=N/c1ccccc1)c1ccccc1)c1ccccc1)c1ccccc1` ; system OVCAR-5; GI50 = > 100 µM (inactive)

---

tested on: 786-0; assay: NCI tumour cell line growth inhibition, 48 h
Activity calls are given as the source filed them. No stated cut-off is given here; in the data, active = GI50 up to about 1.1 µM and inactive = higher.
ASSAY READOUT: GI50

Use these answered entries as a reference point.
- COMPOUND: "Cc1cc(S(=O)(=O)/N=C(\\NN)Nc2ccc(Cl)cc2)c(S)cc1Cl"
  GI50: "6.34 µM (inactive)"
- COMPOUND: "COc1ccc(/C=C2\\CCC(C)(CN(C)C)C2=O)cc1OC (stereo unspecified)"
  GI50: "> 100 µM (inactive)"
- COMPOUND: "CN(C)c1ccc(C=C2C(=O)OC(C)(C)OC2=O)cc1Br"
  GI50: "> 100 µM (inactive)"
- COMPOUND: "N#CC(c1ccc(O)cc1)N1CCN(C(C#N)c2ccc(O)cc2)CC1 (stereo unspecified)"
  GI50: "> 64.1 µM (inactive)"
- COMPOUND: "Cc1ccc(S(=O)(=O)CC2CCCn3c2c(C#N)c2ccccc23)cc1 (stereo unspecified)"
  GI50: "> 100 µM (inactive)"
- COMPOUND: "Cc1nc(N)sc1C(=O)Nc1nc[nH]n1"
  GI50: "> 100 µM (inactive)"

Lab note: measured GI50 of `CCOC(=O)CN1C(=O)C(=O)N(c2ccc(OC)c3ccccc23)C1=O` was > 100 µM (inactive)

Lab note: measured GI50 of `O=S(=O)(Cc1ccccc1)SCc1ccccc1` was 22.7 µM (inactive)

Lab note: measured GI50 of `COC(=O)/C(C#N)=C(\N)c1c(C)c2ccccc2oc1=N` was > 100 µM (inactive)

Lab note: measured GI50 of CC(Oc1ccc(Cl)cc1Cl)C(=O)NN1C(=O)CC(=O)N(c2ccccc2)C1=S (stereo unspecified) was 60.3 µM (inactive)

Lab note: measured GI50 of `O=C1NC(=S)NC(=O)C1=Cc1ccc(-c2ccccc2)cc1` was > 100 µM (inactive)
